Where these numbers come from: the supplement of paper PMC12855868

B1: library; numbered along this chain (parent)
chain: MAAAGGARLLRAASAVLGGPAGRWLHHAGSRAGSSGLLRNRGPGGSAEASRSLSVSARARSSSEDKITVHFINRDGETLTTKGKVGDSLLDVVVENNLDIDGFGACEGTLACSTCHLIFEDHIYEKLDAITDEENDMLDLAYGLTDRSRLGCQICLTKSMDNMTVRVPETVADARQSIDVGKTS

- Variants of: B1
- assay.info: scaled log2 fold change in cell abundance, elesclomol vs control (0 = silent mean, 1 = nonsense mean) (scaled log2 ratio); higher = higher viability under elesclomol (loss of FDX1 cuproptosis function);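 also: variant abundance is its share of total variant reads in each endpoint sample, from next-generation sequencing of the integrated ORF PCR-amplified out of genomic DNA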
- test.parameters: with ABC1 FDX1 KO; elesclomol 5 nM; glucose 10 mM; 14 days
Decision: scaled log2 fold change >= 0.1 yields 1 (yes), all other cases yield 0 (no).

### Prompt Check if scaled log2 fold change >= 0.1 (inclusive). Item: H26T
### Response 1 (yes)

### Prompt Check if scaled log2 fold change >= 0.1 (inclusive). Item: R175V
### Response 1 (yes)

### Prompt Check if scaled log2 fold change >= 0.1 (inclusive). Item: S34Y
### Response 0 (no)

### Prompt Check if scaled log2 fold change >= 0.1 (inclusive). Item: I154M
### Response 1 (yes)

### Prompt Check if scaled log2 fold change >= 0.1 (inclusive). Item: L79C
### Response 0 (no)

### Prompt Check if scaled log2 fold change >= 0.1 (inclusive). Item: L79N
### Response 1 (yes)

### Prompt Check if scaled log2 fold change >= 0.1 (inclusive). Item: S62M
### Response 0 (no)

### Prompt Check if scaled log2 fold change >= 0.1 (inclusive). Item: R149C
### Response 1 (yes)

### Prompt Check if scaled log2 fold change >= 0.1 (inclusive). Item: V55S
### Response 1 (yes)

### Prompt Check if scaled log2 fold change >= 0.1 (inclusive). Item: E133R
### Response 1 (yes)

### Prompt Check if scaled log2 fold change >= 0.1 (inclusive). Item: L140A
### Response 0 (no)

### Prompt Check if scaled log2 fold change >= 0.1 (inclusive). Item: A174P
### Response 0 (no)

### Prompt Check if scaled log2 fold change >= 0.1 (inclusive). Item: V93F
### Response 1 (yes)

### Prompt Check if scaled log2 fold change >= 0.1 (inclusive). Item: E134Q
### Response 1 (yes)

### Prompt Check if scaled log2 fold change >= 0.1 (inclusive). Item: D173L
### Response 0 (no)

### Prompt Check if scaled log2 fold change >= 0.1 (inclusive). Item: G44W
### Response 1 (yes)

### Prompt Check if scaled log2 fold change >= 0.1 (inclusive). Item: V180S
### Response 0 (no)

### Prompt Check if scaled log2 fold change >= 0.1 (inclusive). Item: R51G
### Response 1 (yes)

### Prompt Check if scaled log2 fold change >= 0.1 (inclusive). Item: S184F
### Response 1 (yes)

### Prompt Check if scaled log2 fold change >= 0.1 (inclusive). Item: T81H
### Response 1 (yes)

### Prompt Check if scaled log2 fold change >= 0.1 (inclusive). Item: G108Y
### Response 1 (yes)

### Prompt Check if scaled log2 fold change >= 0.1 (inclusive). Item: A174E
### Response 0 (no)

### Prompt Check if scaled log2 fold change >= 0.1 (inclusive). Item: M160H
### Response 0 (no)

### Prompt Check if scaled log2 fold change >= 0.1 (inclusive). Item: D87K
### Response 1 (yes)

### Prompt Check if scaled log2 fold change >= 0.1 (inclusive). Item: D91I
### Response 1 (yes)

### Prompt Check if scaled log2 fold change >= 0.1 (inclusive). Item: I72Y
### Response 0 (no)

### Prompt Check if scaled log2 fold change >= 0.1 (inclusive). Item: V171I
### Response 0 (no)

### Prompt Check if scaled log2 fold change >= 0.1 (inclusive). Item: I100S
### Response 1 (yes)

### Prompt Check if scaled log2 fold change >= 0.1 (inclusive). Item: A111Y
### Response 0 (no)

### Prompt Check if scaled log2 fold change >= 0.1 (inclusive). Item: D132R
### Response 0 (no)

### Prompt Check if scaled log2 fold change >= 0.1 (inclusive). Item: T80I
### Response 1 (yes)

### Prompt Check if scaled log2 fold change >= 0.1 (inclusive). Item: D173Y
### Response 1 (yes)

### Prompt Check if scaled log2 fold change >= 0.1 (inclusive). Item: L156V
### Response 0 (no)

### Prompt Check if scaled log2 fold change >= 0.1 (inclusive). Item: A59E
### Response 0 (no)

### Prompt Check if scaled log2 fold change >= 0.1 (inclusive). Item: A4D
### Response 1 (yes)

### Prompt Check if scaled log2 fold change >= 0.1 (inclusive). Item: G143Q
### Response 0 (no)

### Prompt Check if scaled log2 fold change >= 0.1 (inclusive). Item: A4W
### Response 1 (yes)

### Prompt Check if scaled log2 fold change >= 0.1 (inclusive). Item: D179T
### Response 1 (yes)

### Prompt Check if scaled log2 fold change >= 0.1 (inclusive). Item: V16P
### Response 0 (no)

### Prompt Check if scaled log2 fold change >= 0.1 (inclusive). Item: S34A
### Response 0 (no)

### Prompt Check if scaled log2 fold change >= 0.1 (inclusive). Item: A172M
### Response 0 (no)

### Prompt Check if scaled log2 fold change >= 0.1 (inclusive). Item: E120W
### Response 1 (yes)

### Prompt Check if scaled log2 fold change >= 0.1 (inclusive). Item: S159Q
### Response 0 (no)

### Prompt Check if scaled log2 fold change >= 0.1 (inclusive). Item: N162I
### Response 0 (no)

### Prompt Check if scaled log2 fold change >= 0.1 (inclusive). Item: G83K
### Response 1 (yes)

### Prompt Check if scaled log2 fold change >= 0.1 (inclusive). Item: E64L
### Response 0 (no)

### Prompt Check if scaled log2 fold change >= 0.1 (inclusive). Item: E77R
### Response 0 (no)
